// data source = the nanobody polyreactivity screen of Harvey et al. (2022)

- Protocol summary: yeast display, Sf9 membrane polyspecificity reagent, FACS + sequencing; frameworks hold sequencing errors
Readout kind: polyreactivity (PSR sort gate)

[
  {
    "Residue sequence": "QVQLVESGGGLVQAGGSLRLSCAASGFTFTAYAMGLYRKATGKERELVAGISRRGASTYYADSVKGRFTISRDYAKNTVYLQMNSLKPEDTAVYYCAALGKYIVAWSGDYWGQGTQVTVSS",
    "Readout kind": "polyreactivity (PSR sort gate)",
    "Observed measurement": "low polyreactivity"
  },
  {
    "Residue sequence": "QVQLQESGGGLVQAGGSLRLSCAASGTLSPLPAMGWYRQAPGKEREFVPGIDTGAITNYADSLKGRFTISRDNAKYTVYLQMNSLKPEDTAVYYCAVFPAAYLYYERYDTYWGQGTQVTVSS",
    "Readout kind": "polyreactivity (PSR sort gate)",
    "Observed measurement": "low polyreactivity"
  },
  {
    "Residue sequence": "QVQLVESGGGLVQAGGSLRLSCAASGSIFKRNDMGWYRQAPGKERELVASISWGGTSTYYADSVKGRLTISRDLAKNTVYLKMYSLKPEDTAVYYCAARGLYTYKTYDDWGQGTLVTVSS",
    "Readout kind": "polyreactivity (PSR sort gate)",
    "Observed measurement": "low polyreactivity"
  }
]
